# System: HOP-92 NSCLC
# measurement-protocol: NCI tumour cell line growth inhibition, 48 h

{"compound": "O=C(NC(Cl)(C(F)(F)F)C(F)(F)F)c1ccc(F)cc1", "TGI": "> 100 µM"}
{"compound": "CCOc1ccc2nc3nc(=O)[nH]c(C)c3c(NCCCN(CC)CC)c2c1", "TGI": "> 100 µM"}
{"compound": "CC(=O)Nc1ccccc1-c1nc2ccccc2nc1C", "TGI": "> 100 µM"}
{"compound": "CCCCNc1nc2ccccc2c2c1ncn2CC(C)C", "TGI": "> 100 µM"}
{"compound": "COc1ccc(/C=C(/C(=O)N2CCN(c3ccccc3)CC2)c2cc(OC)c(OC)c(OC)c2)cc1N", "TGI": "> 100 µM"}
{"compound": "COc1ccc(C(=O)Nc2ncc(Cc3cccc(Cl)c3)s2)cc1OC", "TGI": "> 100 µM"}
{"compound": "CCOP(=O)(C=C=C1CCC2[C@@H]3CCc4cc(OC)ccc4C3CC[C@]12C)OCC (some centres undefined)", "TGI": "22.5 µM"}
{"compound": "Cc1c(O)c2ccccc2oc1=O", "TGI": "> 100 µM"}
{"compound": "Cc1ccc(S(=O)(=O)N2CCN(S(=O)(=O)c3ccc(C)cc3)CCN(S(=O)(=O)c3ccc(C)cc3)Cc3cc(C#N)c(C#N)cc3CN(S(=O)(=O)c3ccc(C)cc3)CC2)cc1", "TGI": "89.3 µM"}
{"compound": "COc1ccc(OC)c(CSc2ccc(OC)c(OC)c2)c1", "TGI": "98.3 µM"}
{"compound": "CC(C)(C)n1c(=O)n2n(c1=O)Cc1cccc3cccc(c13)C2", "TGI": "69.2 µM"}
{"compound": "CC[C@@H]1ON(C)[C@H]2CN(C)C(=O)[C@@H]12", "TGI": "> 100 µM"}
{"compound": "CC[C@H]1CN2CCc3cc(OC)c(OC)cc3C2C[C@@H]1CC1NCCc2cc(OC)c(OC)cc21 (some centres undefined)", "TGI": "0.0464 µM"}
{"compound": "CCCC(=O)NC(Nc1cc(C)ccn1)(C(=O)OCC)C(F)(F)F (centres undefined)", "TGI": "> 100 µM"}
{"compound": "O=C(C=C1SCCS1)/C=C\\c1ccc(Cl)cc1", "TGI": "> 100 µM"}
{"compound": "CC1=Nc2ccccc2NC(c2ccoc2)C1 (centres undefined)", "TGI": "> 100 µM"}
{"compound": "Cc1cc(Nc2ccc(OCc3ccccc3)cc2)nc2cc(O)ccc12", "TGI": "6.26 µM"}
{"compound": "COc1ccc(N=C2S/C(=N\\C(=Nc3ccccc3)SCc3ccccc3)N(c3ccccc3)C2=Nc2ccc(OC)cc2)cc1", "TGI": "> 100 µM"}
{"compound": "COc1cc2nc(Nc3cccc(Br)c3)nc(Nc3cccc(Br)c3)c2cc1OC", "TGI": "29.5 µM"}

----------
# Test system: CAKI-1 renal
# measurement-protocol: NCI tumour cell line growth inhibition, 48 h
endpoint: TGI

{"molecule": "Cn1c2ccccc2n2c3ncccc3c(=NCCCC(=O)O)c(C#N)c12", "endpoint": "TGI", "test-value": "> 100 µM"}
{"molecule": "O=C1C(C(O)(C(F)(F)Cl)C(F)(F)Cl)CCCC1C(O)(C(F)(F)Cl)C(F)(F)Cl (stereo not drawn)", "endpoint": "TGI", "test-value": "> 10 µM"}
{"molecule": "CSC1=Nc2c(c(C)c(-c3ccccc3)n2CCCN2CCCCC2)C2=NC(=O)C[C@H](C)N12", "endpoint": "TGI", "test-value": "44.5 µM"}
{"molecule": "Cc1nc2c(c(=O)[nH]1)S/C(=C(/C#N)c1nc3ccccc3[nH]1)N2c1ccccc1", "endpoint": "TGI", "test-value": "> 100 µM"}
{"molecule": "CC1(C)CC(O)C2=C(O1)C(=O)c1ncccc1C2=O (stereo not drawn)", "endpoint": "TGI", "test-value": "4.45 µM"}
{"molecule": "CCOP(=O)(OCC)C(C)(C)N(C)/C(F)=N/C(F)(F)F", "endpoint": "TGI", "test-value": "> 100 µM"}
{"molecule": "CCOC(=O)c1ccc(Nc2sc(C(=O)c3ccc(Br)cc3)c(N)c2C#N)cc1", "endpoint": "TGI", "test-value": "> 100 µM"}
{"molecule": "CC(=O)N(C)c1ccc(N=CN(C)C)cc1", "endpoint": "TGI", "test-value": "> 100 µM"}
